This collection of values is drawn from patent US12122761B2.

Target: human cloned CHRM4 receptor (M4_CHO cells) (Homo sapiens)
Construct: expressed in transfected cells; host or cells: CHO-K1
Sequence (P08173 whole entry): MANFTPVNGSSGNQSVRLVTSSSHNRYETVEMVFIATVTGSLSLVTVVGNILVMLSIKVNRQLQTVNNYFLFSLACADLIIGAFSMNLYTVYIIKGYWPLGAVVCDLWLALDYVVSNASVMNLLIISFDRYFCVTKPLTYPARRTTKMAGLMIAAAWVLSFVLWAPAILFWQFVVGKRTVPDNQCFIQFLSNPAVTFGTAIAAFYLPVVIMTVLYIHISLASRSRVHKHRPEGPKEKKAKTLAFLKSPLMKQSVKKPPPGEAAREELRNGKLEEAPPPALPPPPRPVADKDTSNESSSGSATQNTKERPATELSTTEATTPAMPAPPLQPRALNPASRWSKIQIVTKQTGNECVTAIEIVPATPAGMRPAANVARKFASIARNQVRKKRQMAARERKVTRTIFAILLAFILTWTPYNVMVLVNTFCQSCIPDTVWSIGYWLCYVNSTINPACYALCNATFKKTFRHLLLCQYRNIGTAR
Test: CHRM4 Ca++ Flux Assay (agonist mode, FDSS 7000EX)
Format: cell-based
Conditions: geometric mean if tested more than once, read-out: M4 FDSS EC50
Measured EC50 values are reported for all entries that follow.
Assay Readout: EC50 (µM)

Molecule | Test Target | Qualifying Sign | Test Result
CC(C)(O)CCOc1ccccc1C1CCN([C@@H]2CCC3(C2)CN(c2ncns2)C3)CC1 | human cloned CHRM4 receptor (M4_CHO cells) (Homo sapiens) | = | 0.019
c1ccc(C2CCN([C@@H]3CCC4(C3)CN(c3cncnc3)C4)CC2)c(O[C@@H]2CCOC2)c1 | human cloned CHRM4 receptor (M4_CHO cells) (Homo sapiens) | = | 0.001
Cc1coc(N2CC3(CC[C@@H](N4CCC(c5ccc(F)cc5OCC(C)(C)O)CC4)C3)C2)n1 | human cloned CHRM4 receptor (M4_CHO cells) (Homo sapiens) | > | 25
COCCOc1ccccc1C1CCN([C@@H]2CCC3(C2)CN(c2cccnn2)C3)CC1 | human cloned CHRM4 receptor (M4_CHO cells) (Homo sapiens) | = | 0.054
COCCOc1ccccc1C1CCN([C@@H]2CCC3(C2)CN(c2cnc(C)cn2)C3)CC1 | human cloned CHRM4 receptor (M4_CHO cells) (Homo sapiens) | > | 25
COc1ccccc1C1CCN([C@@H]2CCC3(C2)CN(c2ncns2)C3)CC1 (single isomer, unassigned) [Example 10Q] | human cloned CHRM4 receptor (M4_CHO cells) (Homo sapiens) | = | 0.008
O=C1CCCN1CCOc1ccccc1C1CCN([C@@H]2CCC3(C2)CN(C(=O)C2(F)CC2)C3)CC1.O=CO (single isomer, unassigned) [Example 7P, formate salt] | human cloned CHRM4 receptor (M4_CHO cells) (Homo sapiens) | = | 0.001

====

Biological target: Cloned human M1 receptor (CHRM1) stably expressed in HEK293 cells (Homo sapiens)
Construct: expressed in transfected cells; host or cells: HEK293
Sequence (P11229 1-460): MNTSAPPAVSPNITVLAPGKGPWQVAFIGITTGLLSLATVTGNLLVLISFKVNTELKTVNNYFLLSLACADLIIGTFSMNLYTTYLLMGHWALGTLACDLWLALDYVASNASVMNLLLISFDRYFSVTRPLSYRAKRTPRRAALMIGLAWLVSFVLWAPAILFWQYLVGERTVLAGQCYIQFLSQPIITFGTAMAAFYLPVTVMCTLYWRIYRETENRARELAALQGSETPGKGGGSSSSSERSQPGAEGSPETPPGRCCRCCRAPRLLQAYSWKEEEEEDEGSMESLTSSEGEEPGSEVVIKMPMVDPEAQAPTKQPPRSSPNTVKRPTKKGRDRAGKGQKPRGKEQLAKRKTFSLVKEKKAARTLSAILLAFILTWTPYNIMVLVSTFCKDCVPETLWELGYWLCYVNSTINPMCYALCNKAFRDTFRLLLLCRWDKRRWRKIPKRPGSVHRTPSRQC
Test: CHRM1 Ca++ Flux Assay (agonist mode, FDSS 7000EX)
Type: cell-based
Details: HEK293, Percent Activity, read-out: M1 FDSS PA
Kind request: treat 80% as inclusive, so Emax at 80% or higher is Satisfied, anything lower is Not satisfied.

Compound | Qualitative Label
c1ccc(C2CCN([C@@H]3CCC4(C3)CN(c3nnco3)C4)CC2)c(CC2CCOCC2)c1 [Example 2L] | Not satisfied
Fc1ccc(N2CC3(CC[C@@H](N4CCC(c5ccccc5C5CCOCC5)CC4)C3)C2)cn1 [Example 5CC] | Not satisfied
O=C(C1COC1)N1CC2(CC[C@@H](N3CCC(c4ccccc4OCC4CC4)CC3)C2)C1 [Example 7I] | Satisfied
c1ccc(C2CCN([C@@H]3CCC4(C3)CN(c3nnco3)C4)CC2)c(OC2CCOCC2)c1 [Example 2F] | Satisfied
CC(C)(O)COc1ccccc1C1CCN([C@@H]2CCC3(C2)CN(c2cncnc2)C3)CC1 [Example 5B] | Not satisfied
c1ccc(C2CCN([C@@H]3CCC4(C3)CN(c3nncs3)C4)CC2)c(OC[C@@H]2COCCO2)c1 [Example 3C] | Satisfied
c1ccc(C2CCN([C@@H]3CCC4(C3)CN(c3nnco3)C4)CC2)c(C2CCOCC2)c1 [Example 2H] | Not satisfied
c1ccc(C2CCN([C@@H]3CCC4(C3)CN(c3nnco3)C4)CC2)c(OC[C@@H]2COCCO2)c1 [Example 1E] | Satisfied
CC(C)(O)CCOc1ccccc1C1CCN([C@@H]2CCC3(C2)CN(C(=O)C2COC2)C3)CC1 [Example 7CC] | Satisfied
COc1ccccc1C1CCN([C@@H]2CCC3(C2)CN(c2ccns2)C3)CC1 [Example 3I] | Not satisfied
COc1ccccc1C1CCN([C@@H]2CCC3(C2)CN(c2nc(C)ns2)C3)CC1 [Example 3M] | Not satisfied
c1ccc(C2CCN([C@@H]3CCC4(C3)CN(c3cncnc3)C4)CC2)c(C2CCOCC2)c1 [Example 5BB] | Not satisfied
COc1ccccc1C1CCN([C@@H]2CCC3(C2)CN(c2cccnn2)C3)CC1 [Example 5O] | Not satisfied
O=C(C1COC1)N1CC2(CC[C@@H](N3CCC(c4ccccc4OCCOC4COC4)CC3)C2)C1 [Example 7EE] | Satisfied
CC(C)(O)COc1ccccc1C1CCN([C@@H]2CCC3(C2)CN(c2ncns2)C3)CC1 [Example 3K] | Not satisfied
c1ccc(C2CCOC2)c(C2CCN([C@@H]3CCC4(C3)CN(c3nnco3)C4)CC2)c1 (some centres unmarked) [Example 2K] | Satisfied
CC(C)(O)CCOc1ccccc1C1CCN([C@@H]2CCC3(C2)CN(c2ncns2)C3)CC1 [Example 3L] | Not satisfied
O=C(C1COC1)N1CC2(CC[C@@H](N3CCC(c4ccccc4OC4CCC4)CC3)C2)C1 [Example 7H] | Not satisfied
c1ccc(C2CCN([C@@H]3CCC4(C3)CN(c3nncs3)C4)CC2)c(OC2COC2)c1 [Example 3A] | Satisfied
N#CCCOc1ccccc1C1CCN([C@@H]2CCC3(C2)CN(C(=O)C2COC2)C3)CC1 [Example 7D] | Satisfied
c1ccc(C2CCN([C@@H]3CCC4(C3)CN(c3cncnc3)C4)CC2)c(O[C@@H]2CCOC2)c1 [Example 1P] | Not satisfied
COc1ccccc1C1CCN([C@@H]2CCC3(C2)CN(c2cccnc2)C3)CC1 [Example 5K] | Not satisfied
Fc1ccc(C2CCOCC2)c(C2CCN([C@@H]3CCC4(C3)CN(c3nnco3)C4)CC2)c1 [Example 2I] | Satisfied
O=C(C1COC1)N1CC2(CC[C@@H](N3CCC(c4ccccc4OC4CC4)CC3)C2)C1 [Example 7A] | Not satisfied
O=C(C1COC1)N1CC2(CC[C@@H](N3CCC(c4ccccc4OCCC(F)(F)F)CC3)C2)C1 [Example 7GG] | Satisfied
O=C(N1CC2(CC[C@@H](N3CCC(c4ccccc4C4CCOCC4)CC3)C2)C1)C1(F)CC1 [Example 6E] | Not satisfied
COc1ccccc1C1CCN([C@@H]2CCC3(C2)CN(c2cnccn2)C3)CC1 [Example 5H] | Not satisfied
CC(C)(O)COc1ccccc1C1CCN([C@@H]2CCC3(C2)CN(c2nncs2)C3)CC1 [Example 3G] | Not satisfied
COc1ccccc1C1CCN([C@@H]2CCC3(C2)CN(c2ccc(Cl)nn2)C3)CC1 [Example 5N] | Not satisfied

====

Measured pEC50 values are reported for all entries that follow.
Biological target: Cloned human M1 receptor (CHRM1) stably expressed in HEK293 cells (Homo sapiens, UniProt P11229)
Sequence (P11229 1-460): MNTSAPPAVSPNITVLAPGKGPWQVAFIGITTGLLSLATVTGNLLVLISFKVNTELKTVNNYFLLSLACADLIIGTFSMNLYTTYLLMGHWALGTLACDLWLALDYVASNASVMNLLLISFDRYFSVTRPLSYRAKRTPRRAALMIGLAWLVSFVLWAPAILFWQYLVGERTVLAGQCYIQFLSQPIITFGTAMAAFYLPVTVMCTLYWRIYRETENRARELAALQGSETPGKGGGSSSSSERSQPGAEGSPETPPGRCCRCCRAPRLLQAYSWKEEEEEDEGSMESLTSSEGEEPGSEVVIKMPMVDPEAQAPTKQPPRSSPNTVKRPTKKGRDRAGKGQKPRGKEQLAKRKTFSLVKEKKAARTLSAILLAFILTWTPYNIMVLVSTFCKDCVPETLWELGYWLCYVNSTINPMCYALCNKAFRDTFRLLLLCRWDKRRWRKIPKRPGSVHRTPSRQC
Experiment: CHRM1 Ca++ Flux Assay (agonist mode, FDSS 7000EX)
Conditions: geometric mean if tested more than once
pEC50: −log10 of the molar value.

Compound Structure | pEC50
c1ccc(C2CCN([C@@H]3CCC4(C3)CN(c3nnco3)C4)CC2)c(OCC2CCOCC2)c1 | 6.37
c1ccc(C2CCN([C@@H]3CCC4(C3)CN(c3nncs3)C4)CC2)c(OC[C@@H]2COCCO2)c1 | 7.39
Fc1ccc(C2CCOCC2)c(C2CCN([C@@H]3CCC4(C3)CN(c3nnco3)C4)CC2)c1 | 6.97
CC(C)(F)COc1ccccc1C1CCN([C@@H]2CCC3(C2)CN(C(=O)C2COC2)C3)CC1 | 7.82
